meta.source: PubChem BioAssay (NCI)

I'd be grateful if you could share measured TGI for these entries.
Test system: EKVX NSCLC
experimental.details: NCI tumour cell line growth inhibition, 48 h
Numbers only, in µM.

// worked examples, TGI included
CCOC(=O)C#Cc1c(C(=O)OCC)nnn1[C@@H]1O[C@H](CO)[C@H]2OC3(CCCCC3)O[C@H]21    30.1
COC(=O)CNC(=O)CCC(C)[C@H]1CCC2C3C(C[C@H](OC(C)=O)[C@@]21C)[C@@]1(C)CCC2(C[C@H]1C[C@H]3OC(C)=O)OOC1(CCCCC1)OO2 (some centres undefined)    3.74
O=C(C1OC1c1cccc([N+](=O)[O-])c1)C12CC3CC(CC(C3)C1)C2 (centres undefined)    27

Note: attention shifts to another entry.
Challenge: If you can, please state the reported TGI value of `CCN(CC)c1ccc(N=Nc2ccc(-c3nc4cccn(C)c-4n3)cc2)cc1` .
Response given: 84.9
